# protocol_summary: yeast display, Sf9 membrane polyspecificity reagent, FACS + sequencing; frameworks hold sequencing errors
value_type: polyreactivity (PSR sort gate)

Some sequences with recorded polyreactivity (PSR sort gate):
QVQLVESGGGLVQAGGSLRLSCAASGRTFRIYAMGWYRHAPRKERELVAAIRWSGGTTYYADSVKGRFSISRDNAKNTVYLQMTSLKPEDTAVYYCAADSTNRYDYCGQGTQVTVSS    high polyreactivity
QVQLVESGGGLVQAGGSLRLSCAASGIFAYYVMGWYRQAPGKERELVADISRGGSTNYADSVKGRFTISRDNAKNTVYLQMISLKPEDSAVYYCNARSYYPWEGYDYWGQGTQVTVSS    low polyreactivity
QVQLVESGGGLVQAGGSLRLSCAASGLTIRSYGMGWYRQAPGKERELVASITWSGGSTYYADSVKGRFTISRDNAKNTVYLQMNSLKPEDTAVYYCAASFDFQGYHYGYWGQGTQVTVSS    high polyreactivity
QVQLEESGGGLVQAGGSLRLSCAASGSTFYEYAMGWYRQAPGKERELVAAITTVGSTNYADSLKGRFTISRDNAKNTVYLQMNSLKPEDTAVYYCNKRPVILYDYWGLGTQVTVSS    low polyreactivity

Kindly consider the entry below.
For the sequence shown here, `QVQLVESGGGLLQAGGSLRLSCAASGLIFANYAMGWYRQAPGKERELVAAITWSGGTTYYADSVKGRFTISRDNAKNTVYLQMNSLKPEDTAVYYCAAEVPYYQAAEYDYWGQGTQVTVSS` , give the reported polyreactivity (PSR sort gate). low polyreactivity
